Origin of the recorded values: ChEMBL document CHEMBL1142943

target: UniProt:P06241; test: Inhibition of human Fyn expressed in Sf9 cells at 10 umol/L by ELISA
experimental_endpoint: pKi
Reminder that pKi means the negative base-10 logarithm of the concentration expressed in mol/L.

Look up pKi of O=C(/C=C/c1ccc(O)c(O)c1)O[C@H](Cc1ccc(O)c(O)c1)C(=O)O [ROSMARINIC ACID] and report it. 5.12

* * *

molecular target: Tyrosine-protein kinase Fyn (Homo sapiens); assay: Inhibition of human Fyn expressed in Sf9 cells after 20 mins by ELISA in presence of 100 umol/L ATP
experimental_endpoint: IC50
# number then unit; no other words

Lab note: Tyrosine-protein kinase Fyn (Homo sapiens) assay, enter IC50 for O=C(/C=C/c1ccc(O)c(O)c1)O[C@H](Cc1ccc(O)c(O)c1)C(=O)O [ROSMARINIC ACID] here 17 µM

* * *

target: Tyrosine-protein kinase Fyn (Homo sapiens); assay: Inhibition of human Fyn expressed in Sf9 cells after 1 min by ELISA in presence of 1 umol/L ATP
experimental_endpoint: IC50 (µM)
Respond with the bare value in µM.

Look up IC50 of O=C(/C=C/c1ccc(O)c(O)c1)O[C@H](Cc1ccc(O)c(O)c1)C(=O)O and report it. 36

* * *

target: Tyrosine-protein kinase Fyn (Homo sapiens, UniProt P06241); assay: Inhibition of human Fyn expressed in Sf9 cells after 1 min by ELISA in presence of 100 umol/L ATP
Sequence (P06241 whole entry): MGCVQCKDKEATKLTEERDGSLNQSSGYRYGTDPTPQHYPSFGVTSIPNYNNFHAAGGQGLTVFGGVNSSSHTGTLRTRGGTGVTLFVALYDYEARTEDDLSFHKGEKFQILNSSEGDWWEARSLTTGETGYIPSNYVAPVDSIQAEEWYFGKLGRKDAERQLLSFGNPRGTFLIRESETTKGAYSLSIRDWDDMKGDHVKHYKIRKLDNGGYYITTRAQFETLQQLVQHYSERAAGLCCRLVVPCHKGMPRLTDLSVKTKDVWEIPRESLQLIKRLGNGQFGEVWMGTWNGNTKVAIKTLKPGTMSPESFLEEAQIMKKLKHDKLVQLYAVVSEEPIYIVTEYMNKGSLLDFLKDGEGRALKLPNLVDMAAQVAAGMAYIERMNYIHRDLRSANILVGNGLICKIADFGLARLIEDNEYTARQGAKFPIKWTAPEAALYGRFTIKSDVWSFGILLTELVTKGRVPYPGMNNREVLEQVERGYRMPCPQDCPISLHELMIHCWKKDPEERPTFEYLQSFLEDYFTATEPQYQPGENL
experimental_endpoint: IC50

Look up IC50 of O=C(/C=C/c1ccc(O)c(O)c1)O[C@H](Cc1ccc(O)c(O)c1)C(=O)O [ROSMARINIC ACID] and report it. 63 µM

* * *

molecular target: Tyrosine-protein kinase Fyn (Homo sapiens, UniProt P06241); assay: Inhibition of human Fyn expressed in Sf9 cells at 30 umol/L by ELISA
experimental_endpoint: Ki (µM)
Respond with the bare value in µM.

Lab note: Tyrosine-protein kinase Fyn (Homo sapiens, UniProt P06241) assay, enter Ki for O=C(/C=C/c1ccc(O)c(O)c1)O[C@H](Cc1ccc(O)c(O)c1)C(=O)O here 10.2

* * *

molecular target: UniProt:P06241; test: Inhibition of human Fyn expressed in Sf9 cells after 20 mins by ELISA in presence of 1 umol/L ATP
experimental_endpoint: IC50 (nM)
Respond with the bare value in nM.

Lab note: UniProt:P06241 assay, enter IC50 for O=C(/C=C/c1ccc(O)c(O)c1)O[C@H](Cc1ccc(O)c(O)c1)C(=O)O here 1300
